# TEST_TARGET: T1, HLA-A*02:01 (human)
# T1 construct: monomers captured on streptavidin plates; also called MHC class I
# METHOD: UV peptide exchange ELISA
Non-standard residues stand in square brackets, D forms with d. No end group written: not given here. pS = N[C@@H](COP(=O)(O)O)C(=O)O
MEASURED_ATTRIBUTE: peptide exchange yield

# annotated cases, reported peptide exchange yield shown
>>> result("TLCDVILMV")
"50 to 75%"
>>> result("SLLPGNLVEKV")
"50 to 75%"
>>> result("RLADKSVLV")
"50 to 75%"
>>> result("LLLPLQILL")
"50 to 75%"

Consider the binder shown here: `ALAAPDIVPAL` What is its recorded peptide exchange yield?
50 to 75%

Consider the binder `ALWDQDNLSV` and give its measured peptide exchange yield.
20 to 50%

Param item = `YIFTDNPAAV` ; retrieve measured peptide exchange yield.
50 to 75%

Consider the binder `LLQNEQFEL` and give its measured peptide exchange yield.
50 to 75%

Recorded peptide exchange yield for `SLNHFTHSV` , please?
50 to 75%

Requested read-out: peptide exchange yield. Entry: `ALWDIETGQQTTT`
50 to 75%

Name the reported peptide exchange yield value associated with the binder `TLLVKVFSV`
50 to 75%

What does the record list as peptide exchange yield for `ILVEADSLWVV` ?
50 to 75%

Which peptide exchange yield value is on record for `RLLPPGAVVAV` ?
50 to 75%

Name the recorded peptide exchange yield for RLL[pS]AAENFL [RLLJAAENFL] .
50 to 75%

Given the binder `YLLSTNAQL` , what is its reported peptide exchange yield?
≥ 75%

# lookup: peptide exchange yield of `GLDAATATV`
20 to 50%

Hello, the source for this data is patent US20170037110A1, in case you need it.
